EXPERIMENT DESCRIPTION: Bioavailability of peptides after vaginal administration to sheep, relative to intravenous injection
CONDITION DETAILS: female, sheep, in vivo
OBSERVABLE: bioavailability (%)
Express the result in % but write the number alone.

CCNC(=O)[C@@H]1CCCN1C(=O)[C@H](CCCNC(=N)N)NC(=O)[C@H](CC(C)C)NC(=O)[C@@H](CC(C)C)NC(=O)[C@H](Cc1ccc(O)cc1)NC(=O)[C@H](CO)NC(=O)[C@H](Cc1c[nH]c2ccccc12)NC(=O)[C@H](Cc1c[nH]cn1)NC(=O)[C@@H]1CCC(=O)N1 [leuprolide acetate] yielded bioavailability of 2.6
